- METHOD_NOTES: xn = mol fraction of the nth substance listed
- CONDITION_CONTEXT: 298.15 K; 100.5 kPa; Liquid; x1 = 0.35
// boundary case: mass density equal to 900 kg/m3 maps to n; strictly smaller maps to y

{"MOLECULE": "CCOC(=O)CC(C)C [ethyl 3-methylbutanoate] + CCO", "DISCRETE_LABEL": "y"}
{"MOLECULE": "CC(=O)OCc1ccccc1 [benzyl ethanoate] + CCO", "DISCRETE_LABEL": "n"}
{"MOLECULE": "COC(=O)c1ccccc1 [methyl benzoate] + CCO", "DISCRETE_LABEL": "n"}
{"MOLECULE": "CCOC(=O)c1ccccc1O [ethyl 2-hydroxybenzoate] + CCO", "DISCRETE_LABEL": "n"}
{"MOLECULE": "CCC(=O)OCc1ccccc1 [benzyl propanoate] + CCO", "DISCRETE_LABEL": "n"}

----------
- METHOD_NOTES: xn = mol fraction of the nth substance listed
- CONDITION_CONTEXT: 288.15 K; 100.5 kPa; Liquid; x1 = 0.35
YES means recorded mass density is 900 kg/m3 or above; NO means it is below 900 kg/m3.

{"COMPOUND": "CCOC(=O)c1ccccc1O [ethyl 2-hydroxybenzoate] + CCO", "DISCRETE_LABEL": "YES"}
{"COMPOUND": "COC(=O)c1ccccc1 [methyl benzoate] + CCO", "DISCRETE_LABEL": "YES"}
{"COMPOUND": "CC(=O)OCc1ccccc1 [benzyl ethanoate] + CCO", "DISCRETE_LABEL": "YES"}
{"COMPOUND": "CCOC(=O)CC(C)C [ethyl 3-methylbutanoate] + CCO", "DISCRETE_LABEL": "NO"}
{"COMPOUND": "CCC(=O)OCc1ccccc1 [benzyl propanoate] + CCO", "DISCRETE_LABEL": "YES"}

----------
Listed compounds paired with reported viscosity
- METHOD_NOTES: xn = mol fraction of the nth substance listed
- CONDITION_CONTEXT: 308.15 K; 100.5 kPa; Liquid; Capillary tube (Ostwald / Ubbelohde) method; x1 = 0.95

{"COMPOUND": "CCC(=O)OCc1ccccc1 [benzyl propanoate] + CCO", "viscosity [mPa·s]": 1.729}
{"COMPOUND": "COC(=O)c1ccccc1 [methyl benzoate] + CCO", "viscosity [mPa·s]": 1.48}
{"COMPOUND": "CCOC(=O)CC(C)C [ethyl 3-methylbutanoate] + CCO", "viscosity [mPa·s]": 0.634}
{"COMPOUND": "CCOC(=O)CC(C)=O [ethyl 3-oxobutanoate] + CCO", "viscosity [mPa·s]": 1.295}
{"COMPOUND": "CC(=O)OCc1ccccc1 [benzyl ethanoate] + CCO", "viscosity [mPa·s]": 1.652}

----------
Listed compounds paired with reported viscosity
- METHOD_NOTES: xn = mol fraction of the nth substance listed
- CONDITION_CONTEXT: 288.15 K; 100.5 kPa; Liquid; Capillary tube (Ostwald / Ubbelohde) method; x1 = 0.15

{"COMPOUND": "CCC(=O)OCc1ccccc1 [benzyl propanoate] + CCO", "viscosity / mPa·s": 1.42}
{"COMPOUND": "CC(=O)OCc1ccccc1 [benzyl ethanoate] + CCO", "viscosity / mPa·s": 1.357}
{"COMPOUND": "CCOC(=O)CC(C)C [ethyl 3-methylbutanoate] + CCO", "viscosity / mPa·s": 1.057}
{"COMPOUND": "CCOC(=O)CC(C)=O [ethyl 3-oxobutanoate] + CCO", "viscosity / mPa·s": 1.19}
{"COMPOUND": "COC(=O)c1ccccc1 [methyl benzoate] + CCO", "viscosity / mPa·s": 1.338}

----------
- METHOD_NOTES: xn = mol fraction of the nth substance listed
- CONDITION_CONTEXT: 288.15 K; 100.5 kPa; Liquid; x1 = 0.15

{"COMPOUND": "CCC(=O)OCc1ccccc1 [benzyl propanoate] + CCO", "mass density / kg/m3": 875.21}
{"COMPOUND": "COC(=O)c1ccccc1 [methyl benzoate] + CCO", "mass density / kg/m3": 879.1}
{"COMPOUND": "CC(=O)OCc1ccccc1 [benzyl ethanoate] + CCO", "mass density / kg/m3": 876.56}
{"COMPOUND": "CCOC(=O)CC(C)C [ethyl 3-methylbutanoate] + CCO", "mass density / kg/m3": 817.13}
{"COMPOUND": "CCOC(=O)c1ccccc1O [ethyl 2-hydroxybenzoate] + CCO", "mass density / kg/m3": 901.89}
{"COMPOUND": "CCOC(=O)CC(C)=O [ethyl 3-oxobutanoate] + CCO", "mass density / kg/m3": 860.94}

----------
- METHOD_NOTES: xn = mol fraction of the nth substance listed
- CONDITION_CONTEXT: 288.15 K; 100.5 kPa; Liquid; Capillary tube (Ostwald / Ubbelohde) method; x1 = 0.85

{"COMPOUND": "CCC(=O)OCc1ccccc1 [benzyl propanoate] + CCO", "viscosity, mPa·s": 2.305}
{"COMPOUND": "CCOC(=O)CC(C)=O [ethyl 3-oxobutanoate] + CCO", "viscosity, mPa·s": 1.709}
{"COMPOUND": "CCOC(=O)CC(C)C [ethyl 3-methylbutanoate] + CCO", "viscosity, mPa·s": 0.833}
{"COMPOUND": "COC(=O)c1ccccc1 [methyl benzoate] + CCO", "viscosity, mPa·s": 2.03}
{"COMPOUND": "CC(=O)OCc1ccccc1 [benzyl ethanoate] + CCO", "viscosity, mPa·s": 2.249}

----------
Listed compounds paired with reported viscosity
- METHOD_NOTES: xn = mol fraction of the nth substance listed
- CONDITION_CONTEXT: 318.15 K; 100.5 kPa; Liquid; Capillary tube (Ostwald / Ubbelohde) method; x1 = 0.65

{"COMPOUND": "CCOC(=O)CC(C)C [ethyl 3-methylbutanoate] + CCO", "ENDPOINT_UNIT": "mPa·s", "viscosity": 0.548}
{"COMPOUND": "CCOC(=O)CC(C)=O [ethyl 3-oxobutanoate] + CCO", "ENDPOINT_UNIT": "mPa·s", "viscosity": 0.888}
{"COMPOUND": "COC(=O)c1ccccc1 [methyl benzoate] + CCO", "ENDPOINT_UNIT": "mPa·s", "viscosity": 1.014}
{"COMPOUND": "CC(=O)OCc1ccccc1 [benzyl ethanoate] + CCO", "ENDPOINT_UNIT": "mPa·s", "viscosity": 1.116}
{"COMPOUND": "CCC(=O)OCc1ccccc1 [benzyl propanoate] + CCO", "ENDPOINT_UNIT": "mPa·s", "viscosity": 1.19}

----------
Listed compounds paired with reported viscosity
- METHOD_NOTES: xn = mol fraction of the nth substance listed
- CONDITION_CONTEXT: 298.15 K; 100.5 kPa; Liquid; Capillary tube (Ostwald / Ubbelohde) method; x1 = 0.05
Numbers after ± are expanded uncertainties.
ENDPOINT_LABEL: viscosity

{"COMPOUND": "CCOC(=O)CC(C)=O [ethyl 3-oxobutanoate] + CCO", "READOUT_VALUE": "1.042 ± 0.013 mPa·s"}
{"COMPOUND": "CCOC(=O)CC(C)C [ethyl 3-methylbutanoate] + CCO", "READOUT_VALUE": "1.02 ± 0.013 mPa·s"}
{"COMPOUND": "COC(=O)c1ccccc1 [methyl benzoate] + CCO", "READOUT_VALUE": "1.092 ± 0.013 mPa·s"}
{"COMPOUND": "CCC(=O)OCc1ccccc1 [benzyl propanoate] + CCO", "READOUT_VALUE": "1.115 ± 0.014 mPa·s"}
{"COMPOUND": "CC(=O)OCc1ccccc1 [benzyl ethanoate] + CCO", "READOUT_VALUE": "1.089 ± 0.013 mPa·s"}

----------
- METHOD_NOTES: xn = mol fraction of the nth substance listed
- CONDITION_CONTEXT: 288.15 K; 100.5 kPa; Liquid; x1 = 0.6
t means recorded mass density is 1000 kg/m3 or above; f means it is below 1000 kg/m3.

{"MOLECULE": "CCOC(=O)c1ccccc1O [ethyl 2-hydroxybenzoate] + CCO", "DISCRETE_LABEL": "t"}
{"MOLECULE": "CCOC(=O)CC(C)C [ethyl 3-methylbutanoate] + CCO", "DISCRETE_LABEL": "f"}

----------
Listed molecules paired with reported viscosity
- METHOD_NOTES: xn = mol fraction of the nth substance listed
- CONDITION_CONTEXT: 298.15 K; 100.5 kPa; Liquid; Capillary tube (Ostwald / Ubbelohde) method; x1 = 0.9

{"MOLECULE": "CC(=O)OCc1ccccc1 [benzyl ethanoate] + CCO", "viscosity / mPa·s": 1.906}
{"MOLECULE": "COC(=O)c1ccccc1 [methyl benzoate] + CCO", "viscosity / mPa·s": 1.712}
{"MOLECULE": "CCOC(=O)CC(C)C [ethyl 3-methylbutanoate] + CCO", "viscosity / mPa·s": 0.727}
{"MOLECULE": "CCC(=O)OCc1ccccc1 [benzyl propanoate] + CCO", "viscosity / mPa·s": 1.986}
{"MOLECULE": "CCOC(=O)CC(C)=O [ethyl 3-oxobutanoate] + CCO", "viscosity / mPa·s": 1.471}
